target or test system: NACHT, LRR and PYD domains-containing protein 3 (Homo sapiens)
Sequence (Q96P20 whole entry, the tested form may be a part): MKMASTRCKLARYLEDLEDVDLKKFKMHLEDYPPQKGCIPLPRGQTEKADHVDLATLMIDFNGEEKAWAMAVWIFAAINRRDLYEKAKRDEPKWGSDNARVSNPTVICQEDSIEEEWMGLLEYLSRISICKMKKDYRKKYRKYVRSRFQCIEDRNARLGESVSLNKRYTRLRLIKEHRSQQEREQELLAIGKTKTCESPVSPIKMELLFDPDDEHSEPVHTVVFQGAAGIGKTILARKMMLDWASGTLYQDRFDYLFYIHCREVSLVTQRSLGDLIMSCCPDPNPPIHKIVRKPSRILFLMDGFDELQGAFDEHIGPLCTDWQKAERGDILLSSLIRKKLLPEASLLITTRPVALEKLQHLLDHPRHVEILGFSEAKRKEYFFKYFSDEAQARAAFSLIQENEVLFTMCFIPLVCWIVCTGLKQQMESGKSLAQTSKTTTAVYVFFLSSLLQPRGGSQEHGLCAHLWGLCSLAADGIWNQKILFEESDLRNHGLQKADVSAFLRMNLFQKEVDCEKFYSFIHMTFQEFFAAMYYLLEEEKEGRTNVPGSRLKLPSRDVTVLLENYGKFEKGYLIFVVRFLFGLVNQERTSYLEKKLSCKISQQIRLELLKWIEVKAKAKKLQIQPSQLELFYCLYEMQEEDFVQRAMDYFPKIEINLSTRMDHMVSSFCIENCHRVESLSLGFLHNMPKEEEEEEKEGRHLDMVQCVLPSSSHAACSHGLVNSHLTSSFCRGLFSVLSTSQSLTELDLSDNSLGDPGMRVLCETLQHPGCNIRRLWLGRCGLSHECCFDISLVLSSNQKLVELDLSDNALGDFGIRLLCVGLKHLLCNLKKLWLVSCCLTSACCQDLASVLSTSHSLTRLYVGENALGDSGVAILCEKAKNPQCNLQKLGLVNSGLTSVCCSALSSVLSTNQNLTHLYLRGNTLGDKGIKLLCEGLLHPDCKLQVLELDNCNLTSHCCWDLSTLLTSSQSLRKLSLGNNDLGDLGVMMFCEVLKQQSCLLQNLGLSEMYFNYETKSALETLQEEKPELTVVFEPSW
assay name: Inhibition of NLRP3 inflammasome activation in PMA-differentiated human THP-1 cells assessed as reduction in LPS/MSU-induced IL-1beta secretion preincubated with LPS for 3 hrs followed by compound addition for 30 mins prior to MSU addition and measured after 4 hrs by ELISA method
Format: cell-based
measurement name: IC50 (µM)

COc1cncc(-c2ccc3c(c2NC(=O)NS(=O)(=O)c2cc(C(C)(C)O)co2)CCC3)c1 :: 0.032
CC(C)(O)c1coc(S(=O)(=O)NC(=O)Nc2c(-c3ccnc(F)c3)ccc3c2CCC3)c1 :: 0.027
COC(=O)c1csc(S(=O)(=O)NC(=O)Nc2c(-c3ccc([N+](=O)[O-])cc3)ccc3c2CCC3)c1 :: 0.334

a. CN[C@H]1COc2c(S(=O)(=O)NC(=O)Nc3c(-c4ccc([N+](=O)[O-])cc4)ccc4c3CCC4)cnn2C1
b. CC(C)c1cc(I)cc(C(C)C)c1NC(=O)NS(=O)(=O)c1cc(C(C)(C)O)co1
Query block: Between a and b , whose recorded IC50 is greater? Pick one; state its label.
Result block: a

1. O=C(Nc1c(-c2ccc([N+](=O)[O-])cc2)ccc2c1CCC2)NS(=O)(=O)c1cnn2c1OCCC2
2. Cc1cccc(-c2ccc3c(c2NC(=O)NS(=O)(=O)c2cc(C(C)(C)O)co2)CCC3)c1
Query block: When the recorded IC50 values are compared, which is smaller: that of 1 or that of 2 ? Pick one; state its label.
Result block: 2

* * *

target or test system: NACHT, LRR and PYD domains-containing protein 3 (Homo sapiens)
assay name: Inhibition of NLRP3 inflammasome activation in PMA-differentiated human THP-1 cells assessed as reduction in LPS/MSU-induced IL-1beta secretion preincubated with LPS for 3 hrs followed by compound addition for 30 mins prior to MSU addition and measured after 4 hrs by ELISA method
pIC50: −log10 of the molar value.
measurement name: pIC50

Cc1cc(F)ccc1-c1ccc2c(c1NC(=O)NS(=O)(=O)c1cc(C(C)(C)O)co1)CCC2 :: 6.25
CC(C)(O)c1coc(S(=O)(=O)NC(=O)Nc2c(-c3ccc([N+](=O)[O-])cc3)ccc3c2CCC3)c1 :: 8.22
Nc1cccc(S(=O)(=O)NC(=O)Nc2c(-c3ccc([N+](=O)[O-])cc3)ccc3c2CCC3)c1 :: 6.39
CC(=O)c1ccc(S(=O)(=O)NC(=O)Nc2c(-c3ccc([N+](=O)[O-])cc3)ccc3c2CCC3)cc1 :: 6.37
CCCCNC(=O)c1cccc(-c2ccc3c(c2NC(=O)NS(=O)(=O)c2cc(C(C)(C)O)co2)CCC3)c1 :: 7.08
COCCOc1ccc(-c2ccc3c(c2NC(=O)NS(=O)(=O)c2cc(C(C)(C)O)co2)CCC3)cc1 :: 6.61
CCCCOc1cccc(-c2ccc3c(c2NC(=O)NS(=O)(=O)c2cc(C(C)(C)O)co2)CCC3)c1 :: 6.54
CC(C)(O)c1csc(S(=O)(=O)NC(=O)Nc2c(-c3ccc([N+](=O)[O-])cc3)ccc3c2CCC3)c1 :: 7.92

A. O=C(Nc1c(-c2ccc([N+](=O)[O-])cc2)ccc2c1CCC2)NS(=O)(=O)c1cccs1
B. O=C(Nc1c(-c2ccc([N+](=O)[O-])cc2)ccc2c1CCC2)NS(=O)(=O)c1cccc(Br)n1
C. CC(C)(O)c1coc(S(=O)(=O)NC(=O)Nc2c(-c3cccc(OC(F)(F)F)c3)ccc3c2CCC3)c1
Query block: Arrange these compounds by their pIC50, starting with the largest number. Respond with an ordered listing of the labels, as requested.
Result block: A, B, C

A. CCOc1ccc2cc(-c3ccc4c(c3NC(=O)NS(=O)(=O)c3cc(C(C)(C)O)co3)CCC4)ccc2c1
B. O=C(Nc1c(-c2ccc([N+](=O)[O-])cc2)ccc2c1CCC2)NS(=O)(=O)c1ccccc1
Query block: When the recorded pIC50 values are compared, which is smaller: that of A or that of B ? Pick one; state its label.
Result block: B
